target: recombinant rat PIM-3 (Rattus norvegicus (Rat), UniProt O70444); test: PIM-3 Enzyme Assay; conditions: read-out: PIM-3 IC50; 30 μM ATP, 0.5 nM PIM-3
pIC50: −log10 of the molar value. Structures can show the parent of a compound that is named as a salt.
pIC50 overview

MOLECULE: c1cc(OCC2CCNCC2)c2nc(-c3nnc4ccccn34)ccc2c1 [Example 14]
TARGET: recombinant rat PIM-3 (Rattus norvegicus (Rat), UniProt O70444)
pIC50: 7.96

MOLECULE: CC(C)(COc1cc(F)cc2ccc(-c3nnc4ccccn34)nc12)[C@@H](O)CO [Example 112, dihydrochloride]
TARGET: recombinant rat PIM-3 (Rattus norvegicus (Rat), UniProt O70444)
pIC50: 8.00

MOLECULE: Cc1ccn2c(-c3ccc4cccc(OC5CCNCCC5F)c4n3)nnc2c1 (single isomer, unassigned) [Example 122]
TARGET: recombinant rat PIM-3 (Rattus norvegicus (Rat), UniProt O70444)
pIC50: 7.63

MOLECULE: CC[C@@H](CN)C(C)Oc1cccc2ccc(-c3nnc4ccccn34)nc12 (stereo partly drawn) [Example 32]
TARGET: recombinant rat PIM-3 (Rattus norvegicus (Rat), UniProt O70444)
pIC50: 7.77

MOLECULE: Fc1cc(OC2CCNCCC2F)c2nc(-c3nnc4ccccn34)ccc2c1 (single isomer, unassigned) [Example 91]
TARGET: recombinant rat PIM-3 (Rattus norvegicus (Rat), UniProt O70444)
pIC50: 9.05

MOLECULE: c1cc(N[C@H]2CCNC2)c2nc(-c3nnc4ccccn34)ccc2c1 [Example 4]
TARGET: recombinant rat PIM-3 (Rattus norvegicus (Rat), UniProt O70444)
pIC50: 6.98

MOLECULE: c1cc(NC2CCNCC2)c2nc(-c3nnc4ccccn34)ccc2c1 [Example 1]
TARGET: recombinant rat PIM-3 (Rattus norvegicus (Rat), UniProt O70444)
pIC50: 8.36

MOLECULE: Fc1ccc2nnc(-c3ccc4cccc(O[C@H]5CCNC[C@H]5F)c4n3)n2c1 (relative stereo) [Example 59]
TARGET: recombinant rat PIM-3 (Rattus norvegicus (Rat), UniProt O70444)
pIC50: 7.01

MOLECULE: CCC(Oc1cccc2ccc(-c3nnc4ccccn34)nc12)[C@@H](CC)CN (stereo partly drawn) [Example 30]
TARGET: recombinant rat PIM-3 (Rattus norvegicus (Rat), UniProt O70444)
pIC50: 7.89

MOLECULE: F[C@H]1CNCC[C@@H]1Oc1cccc2ccc(-c3nnc4ccccn34)nc12 (relative stereo) [Example 25]
TARGET: recombinant rat PIM-3 (Rattus norvegicus (Rat), UniProt O70444)
pIC50: 7.70

MOLECULE: Fc1cc(O[C@H]2CCNC[C@H]2F)c2nc(-c3nnc4ccccn34)ccc2c1 (relative stereo) [Example 88]
TARGET: recombinant rat PIM-3 (Rattus norvegicus (Rat), UniProt O70444)
pIC50: 7.62

MOLECULE: OCC1(COc2cccc3ccc(-c4nnc5ccccn45)nc23)CC1 [Example 22]
TARGET: recombinant rat PIM-3 (Rattus norvegicus (Rat), UniProt O70444)
pIC50: 7.60

MOLECULE: CCC(Oc1cccc2ccc(-c3nnc4ccccn34)nc12)[C@H](CC)CN (stereo partly drawn) [Example 31]
TARGET: recombinant rat PIM-3 (Rattus norvegicus (Rat), UniProt O70444)
pIC50: 7.72

MOLECULE: CC(C)(C)OC(=O)NCCCNc1cccc2ccc(-c3nnc4ccccn34)nc12 [Example 6]
TARGET: recombinant rat PIM-3 (Rattus norvegicus (Rat), UniProt O70444)
pIC50: 6.81

MOLECULE: CC(C)(CO)COc1cccc2ccc(-c3nnc4cc(CN)ccn34)nc12 [Example 19]
TARGET: recombinant rat PIM-3 (Rattus norvegicus (Rat), UniProt O70444)
pIC50: 8.70

MOLECULE: CC(C)(CN)COc1cccc2ccc(-c3nnc4ccc(C5CC5)cn34)nc12 [Example 64, dihydrochloride]
TARGET: recombinant rat PIM-3 (Rattus norvegicus (Rat), UniProt O70444)
pIC50: 8.30

MOLECULE: c1cc(OC2CC3CCC(C2)N3)c2nc(-c3nnc4ccccn34)ccc2c1 (stereo not drawn) [Example 29]
TARGET: recombinant rat PIM-3 (Rattus norvegicus (Rat), UniProt O70444)
pIC50: 7.52

MOLECULE: c1cc(OC[C@@H]2CCCN2)c2nc(-c3nnc4ccccn34)ccc2c1 [Example 61]
TARGET: recombinant rat PIM-3 (Rattus norvegicus (Rat), UniProt O70444)
pIC50: 6.14

MOLECULE: CC1(COc2cccc3ccc(-c4nnc5ccccn45)nc23)CCNCC1 [Example 67, dihydrochloride]
TARGET: recombinant rat PIM-3 (Rattus norvegicus (Rat), UniProt O70444)
pIC50: 8.52

MOLECULE: CN(C)C(=O)[C@@H]1C[C@@H](Oc2cccc3ccc(-c4nnc5ccccn45)nc23)CCN1 [Example 54, dihydrochloride]
TARGET: recombinant rat PIM-3 (Rattus norvegicus (Rat), UniProt O70444)
pIC50: 6.33

MOLECULE: NCCCOc1cccc2ccc(-c3nnc4ccccn34)nc12 [Example 10]
TARGET: recombinant rat PIM-3 (Rattus norvegicus (Rat), UniProt O70444)
pIC50: 7.89

MOLECULE: F[C@@H]1CNCCC1Oc1cccc2ccc(-c3nnc4ccccn34)nc12 (stereo in doubt) [Example 26, dihydrochloride]
TARGET: recombinant rat PIM-3 (Rattus norvegicus (Rat), UniProt O70444)
pIC50: 8.05

MOLECULE: Cc1ccc2nnc(-c3ccc4cccc(OC5CCNCCC5F)c4n3)n2c1 (single isomer, unassigned) [Example 100]
TARGET: recombinant rat PIM-3 (Rattus norvegicus (Rat), UniProt O70444)
pIC50: 8.70

MOLECULE: OCC(O)COc1cccc2ccc(-c3nnc4ccccn34)nc12 (stereo not drawn) [Example 62]
TARGET: recombinant rat PIM-3 (Rattus norvegicus (Rat), UniProt O70444)
pIC50: 6.58

MOLECULE: FC1(COc2cccc3ccc(-c4nnc5ccccn45)nc23)CCNCC1 [Example 66, dihydrochloride]
TARGET: recombinant rat PIM-3 (Rattus norvegicus (Rat), UniProt O70444)
pIC50: 8.52

MOLECULE: N[C@H]1CC[C@H](Oc2cccc3ccc(-c4nnc5ccccn45)nc23)CC1 [Example 17]
TARGET: recombinant rat PIM-3 (Rattus norvegicus (Rat), UniProt O70444)
pIC50: 8.52

MOLECULE: Cc1ccn2c(-c3ccc4cccc(OC5CCNCCC5F)c4n3)nnc2c1 (single isomer, unassigned) [Example 92]
TARGET: recombinant rat PIM-3 (Rattus norvegicus (Rat), UniProt O70444)
pIC50: 8.52
